Just for reference, patent US20250304567A1 is where these values come from.

Measured on: Recombinant Human NF-kappaB-Inducing Kinase (NIK/MAP3K14) (Homo sapiens)
Sequence (Q99558 whole entry): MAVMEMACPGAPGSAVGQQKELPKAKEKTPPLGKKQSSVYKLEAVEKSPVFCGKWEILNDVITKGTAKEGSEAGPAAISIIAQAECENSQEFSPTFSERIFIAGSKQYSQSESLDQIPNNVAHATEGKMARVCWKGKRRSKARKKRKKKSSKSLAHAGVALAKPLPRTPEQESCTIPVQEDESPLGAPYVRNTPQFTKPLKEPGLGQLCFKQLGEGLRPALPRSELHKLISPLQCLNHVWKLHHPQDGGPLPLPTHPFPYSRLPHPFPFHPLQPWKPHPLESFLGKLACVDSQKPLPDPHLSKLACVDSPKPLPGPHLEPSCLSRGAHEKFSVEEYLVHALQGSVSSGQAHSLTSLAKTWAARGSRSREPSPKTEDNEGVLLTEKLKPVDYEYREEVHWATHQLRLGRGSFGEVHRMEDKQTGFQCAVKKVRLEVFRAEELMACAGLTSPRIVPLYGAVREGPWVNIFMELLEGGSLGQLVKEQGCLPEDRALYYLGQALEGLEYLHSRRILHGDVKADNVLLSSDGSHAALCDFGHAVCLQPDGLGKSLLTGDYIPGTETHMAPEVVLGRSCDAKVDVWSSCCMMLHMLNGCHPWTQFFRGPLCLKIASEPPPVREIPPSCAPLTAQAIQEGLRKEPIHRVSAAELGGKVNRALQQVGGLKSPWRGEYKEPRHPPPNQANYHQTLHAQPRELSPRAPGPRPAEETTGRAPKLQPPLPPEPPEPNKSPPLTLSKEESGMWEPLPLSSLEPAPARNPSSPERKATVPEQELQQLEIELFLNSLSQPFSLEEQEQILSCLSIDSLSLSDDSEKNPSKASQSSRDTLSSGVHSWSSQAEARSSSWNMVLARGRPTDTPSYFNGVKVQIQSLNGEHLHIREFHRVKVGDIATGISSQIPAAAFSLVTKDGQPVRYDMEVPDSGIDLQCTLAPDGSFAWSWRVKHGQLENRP
Experiment summary: Inhibition of auto-phosphorylation of recombinant human NIK/MAP3K14 activity (AlphaScreen)
Protocol conditions: 5 μM ATP, 1 nM NIK, average if tested more than once
Reported IC50 values for the following compounds.

Compound: Cc1cccc(Nc2nccc(-c3csc(-c4cccc([C@]5(O)CCN(C)C5=O)c4)n3)n2)n1
IC50: < 0.1 µM

Compound: CN1CCC(O)(c2ccc(F)c(-c3csc(-c4ccnc(Nc5ccn(C)n5)n4)n3)c2)C1=O (single isomer, unassigned) [Example 29]
IC50: 0.1 to 0.5 µM

Compound: CN1C(=O)[C@](O)(c2cncc(-c3csc(-c4ccnc(Nc5ccn(C)n5)n4)n3)c2)C[C@H]1C(F)(F)F (single isomer, unassigned)
IC50: < 0.1 µM

Compound: CN1CC[C@@](O)(c2cccc(-c3nc(-c4ccnc(NCCc5ccccn5)n4)cs3)c2)C1=O
IC50: 0.1 to 0.5 µM

Compound: COc1nn(C)cc1Nc1nccc(-c2csc(-c3cccc([C@]4(O)CCN(C)C4=O)c3)n2)n1
IC50: < 0.1 µM

Compound: CN1CC[C@@](O)(c2cccc(-c3nc(-c4ccnc(NC[C@@H]5CCCO5)n4)cs3)c2)C1=O
IC50: < 0.1 µM

Next compound, IC50 to be filled in.
Prompt: Entry `CN1CC[C@@](O)(c2cccc(-c3nc(-c4ccnc(Nc5cn(C)nc5OCC(F)(F)F)n4)cs3)c2)C1=O` needs its IC50 filled in; supply it.
Completion: < 0.1 µM

----------
Tested on: p-IKKa levels in L363 (NIK translocated multiple myeloma) cells
Experiment summary: Effect of compounds on p-IKKa levels in L363 (NIK translocated multiple myeloma) cells (AlphaLISA SureFire Ultra p-IKKa Ser176/180)
Format: cell-based, human
Protocol conditions: Homo sapiens, L-363, p-IKKa levels in L363 cells; average if tested more than once; read-out: Assay 2 IC50
pIC50: −log10 of the molar value.
Below, each entry is listed with its recorded pIC50.

Recorded pIC50, per entry:
Molecule: Cc1c(Nc2nccc(-c3csc(-c4cccc([C@]5(O)CCN(C)C5=O)c4)n3)n2)ncn1C [Example 178]
Value observed: < 6.30
--
Molecule: COc1ccnc(Nc2nccc(-c3csc(-c4cccc([C@]5(O)CCN(C)C5=O)c4)n3)n2)c1 [Example 162]
Value observed: < 6.30
--
Molecule: CN1CCC(O)(c2ccnc(-c3cccc(-c4ccnc(Nc5ccn(C)n5)n4)n3)c2)C1=O (racemic) [Example 31]
Value observed: < 6.30

Okay, now this molecule:
Prompt: GET pIC50 where system = p-IKKa levels in L363 (NIK translocated multiple myeloma) cells and item = COCCn1ccc(Nc2nccc(-c3csc(-c4cccc([C@]5(O)CCN(C)C5=O)c4)n3)n2)n1 [Example 260]
Completion: 6.30 to 7.00

----------
# IC50 annotations
Measured on: Recombinant Human NF-kappaB-Inducing Kinase (NIK/MAP3K14) (Homo sapiens)
Experiment summary: Inhibition of auto-phosphorylation of recombinant human NIK/MAP3K14 activity (AlphaScreen)
Protocol conditions: 5 μM ATP, 1 nM NIK, average if tested more than once
Experimental: Assay 1: Inhibition of Auto-Phosphorylation of Recombinant Human NF-kappaB-Inducing Kinase (NIK/MAP3K14) Activity (AlphaScreen™) NIK/MAP3K14 auto-phosphorylation activity was measured using the AlphaScreen™ (αscreen) format (Perkin Elmer). […] Protein A Acceptor and Glutathione-Donor beads were added before reading using an EnVision Multilabel Plate Reader (Perkin Elmer). […] IC50's were determined by fitting a sigmoidal curve to % inhibition of control versus Log10 compound concentration.

Compound: CCn1ncc(C)c1Nc1nccc(-c2csc(-c3cccc([C@]4(O)CCN(C)C4=O)c3)n2)n1
Endpoint name: IC50
Value observed: > 0.501 µM

Compound: CO[C@H]1C[C@H](Nc2nccc(-c3csc(-c4cccc([C@]5(O)CCN(C)C5=O)c4)n3)n2)C1
Endpoint name: IC50
Value observed: < 0.1 µM

Compound: CN1CC[C@@](O)(c2cccc(-c3nc(-c4ccnc(NCc5cnn(C)c5)n4)cs3)c2)C1=O
Endpoint name: IC50
Value observed: < 0.1 µM

Prompt: For the compound CN1CC[C@@](O)(c2cccc(-c3nc(-c4ccnc(Nc5cnn(C6CCOC6)c5)n4)cs3)c2)C1=O (single isomer, unassigned) [Example 18] , report IC50.
Completion: < 0.1 µM

----------
Measured on: Recombinant Human NF-kappaB-Inducing Kinase (NIK/MAP3K14) (Homo sapiens)
Experiment summary: Inhibition of auto-phosphorylation of recombinant human NIK/MAP3K14 activity (AlphaScreen)
Protocol conditions: 5 μM ATP, 1 nM NIK, average if tested more than once
pIC50: −log10 of the molar value.
Quick reference for pIC50 among some molecules

Some molecules with known pIC50 results, for comparison:
Molecule: CNc1nccc(-c2csc(-c3cccc([C@]4(O)CCN(C)C4=O)c3)n2)n1 [Example 170]
Measured on: Recombinant Human NF-kappaB-Inducing Kinase (NIK/MAP3K14) (Homo sapiens)
pIC50: 6.30 to 7.00

Molecule: CN1CC[C@@](O)(c2cccc(-c3nc(-c4ccnc(N[C@H]5CCC[C@@H](O)C5)n4)cs3)c2)C1=O [Example 255]
Measured on: Recombinant Human NF-kappaB-Inducing Kinase (NIK/MAP3K14) (Homo sapiens)
pIC50: 6.30 to 7.00

Molecule: Cc1cnoc1Nc1nccc(-c2csc(-c3cccc([C@]4(O)CCN(C)C4=O)c3)n2)n1 [Example 274]
Measured on: Recombinant Human NF-kappaB-Inducing Kinase (NIK/MAP3K14) (Homo sapiens)
pIC50: < 6.30

Prompt: Please indicate pIC50 recorded for CN1CC[C@@](O)(c2cccc(-c3nc(-c4ccnc(NC5CCN(C6COC6)CC5)n4)cs3)c2)C1=O [Example 228]
Completion: < 6.30

Prompt: Let me know recorded pIC50 for CN1CC[C@@](O)(c2cccc(-c3nc(-c4ccnc(Nc5cccc(OC(F)(F)F)n5)n4)cs3)c2)C1=O [Example 167] , thanks.
Completion: > 7.00

Prompt: Give recorded pIC50. CCCn1ccc(Nc2nccc(-c3csc(-c4cccc([C@]5(O)CCN(C)C5=O)c4)n3)n2)n1 [Example 67]
Completion: > 7.00

Prompt: Provide only the value of recorded pIC50 for CN1CC[C@@](O)(c2cccc(-c3nc(-c4ccnc(N[C@H]5CC[C@@H](O)C5)n4)cs3)c2)C1=O [Example 253]
Completion: > 7.00

Prompt: Return reported pIC50. Input molecule: CN1CC[C@@](O)(c2cccc(-c3nc(-c4ccnc(NCc5cn(C)cn5)n4)cs3)c2)C1=O [Example 196]
Completion: 6.30 to 7.00

Prompt: Return pIC50 for the following molecule: CN1CC[C@@](O)(c2cccc(-c3nc(-c4ccnc(NCc5cnccn5)n4)cs3)c2)C1=O [Example 194]
Completion: 6.30 to 7.00

----------
Test system: p-IKKa levels in L363 (NIK translocated multiple myeloma) cells
Experiment summary: Effect of compounds on p-IKKa levels in L363 (NIK translocated multiple myeloma) cells (AlphaLISA SureFire Ultra p-IKKa Ser176/180)
Format: cell-based, human
Protocol conditions: Homo sapiens, L-363, p-IKKa levels in L363 cells; average if tested more than once; read-out: Assay 2 IC50
pIC50: −log10 of the molar value.
Endpoint name: pIC50

Look over these answered cases.
Compound: CN1CC[C@@](O)(c2cccc(-c3nc(-c4ccnc(N[C@H]5CCOC5)n4)cs3)c2)C1=O
pIC50: < 6.30
//
Compound: CCc1cc(Nc2nccc(-c3csc(-c4cccc([C@]5(O)CCN(C)C5=O)c4)n3)n2)ncn1
pIC50: < 6.30
//
Compound: CN1CC[C@@](O)(c2cccc(-c3csc(-c4ccnc(Nc5ccn(C)n5)n4)n3)c2)C1=O
pIC50: > 7.00
//
Compound: Cc1c(CNc2nccc(-c3csc(-c4cccc([C@]5(O)CCN(C)C5=O)c4)n3)n2)cnn1C
pIC50: < 6.30
//
Compound: Cc1cn(-c2ccnc(Nc3ccn(C)n3)n2)nc1-c1cc(C2(O)CCN(C)C2=O)ccn1 (racemic)
pIC50: < 6.30
//
Compound: CCn1cc(Nc2nccc(-c3csc(-c4cccc([C@]5(O)CCN(C)C5=O)c4)n3)n2)cn1
pIC50: 6.30 to 7.00

Prompt: Give pIC50 only, for CN1CC(Nc2nccc(-c3csc(-c4cccc([C@]5(O)CCN(C)C5=O)c4)n3)n2)CCC1=O (some centres unmarked) , using p-IKKa levels in L363 (NIK translocated multiple myeloma) cells data.
Completion: < 6.30

Prompt: State recorded pIC50 with p-IKKa levels in L363 (NIK translocated multiple myeloma) cells, entry `CN1CC[C@@](O)(c2cccc(-c3nc(-c4ccnc(Nc5cn(C6CCC6)cn5)n4)cs3)c2)C1=O` , no comment.
Completion: < 6.30

----------
Measured on: Recombinant Human NF-kappaB-Inducing Kinase (NIK/MAP3K14) (Homo sapiens)
Experiment summary: Inhibition of auto-phosphorylation of recombinant human NIK/MAP3K14 activity (AlphaScreen)
Protocol conditions: 5 μM ATP, 1 nM NIK, average if tested more than once
pIC50: −log10 of the molar value.
Endpoint name: pIC50

// below: answered compounds
Compound: CN1C(=O)[C@@](O)(c2cncc(-c3csc(-c4ccnc(Nc5ccn(C)n5)n4)n3)c2)C[C@@H]1C(F)(F)F (single isomer, unassigned)
Value observed: < 6.30
--
Compound: CN1C(=O)[C@](O)(c2ccnc(-c3csc(-c4ccnc(Nc5ccn(C)n5)n4)n3)c2)C[C@H]1C(F)(F)F (single isomer, unassigned)
Value observed: > 7.00

Prompt: Quick one: give measured pIC50 for `CN1CC[C@@](O)(c2cccc(-c3nc(-c4ccnc(Nc5cccnc5C(F)(F)F)n4)cs3)c2)C1=O`
Completion: > 7.00
